- System: Mus musculus
- run-description: Induction of convulsion in intracerebroventricular dosed mouse
- Format: organism-based
- condition-info: in vivo, icv_or_intrathecal
quantity: ED50 (µg)
Answers are plain numbers, in µg.

Example results:
molecule_smiles=Cn1c(N)c(/C=C/CN)c[n+]1CC1=C(C(=O)[O-])N2C(=O)[C@@H](NC(=O)/C(=N\OC(C)(C)C(=O)O)c3nsc(N)n3)[C@H]2SC1 quantity=ED50 recorded_number=122
molecule_smiles=CC(C)(O/N=C(\C(=O)N[C@@H]1C(=O)N2C(C(=O)[O-])=C(C[n+]3ccccc3)CS[C@H]12)c1csc(N)n1)C(=O)O quantity=ED50 recorded_number=71

Switching to the query record.
Ask | Quick check: ED50 of Cn1c(N)c(CNC(=N)N)c[n+]1CC1=C(C(=O)[O-])N2C(=O)[C@@H](NC(=O)/C(=N\OC(C)(C)C(=O)O)c3nsc(N)n3)[C@H]2SC1 ?
Reply | 4.69
